Just for reference, the supplement of paper PMC6555819 is where these values come from.

tested on: PXR:RXRa (NR concentration 270 nM, RXRa partner concentration 90 nM); experiment: PBM binding z-score (relative to random genomic background probes); higher = stronger binding; sequences stand for … in GC…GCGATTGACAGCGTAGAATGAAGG
Entries are sorted into classes by PBM binding z-score as follows: low (below 0.5), moderate (0.5 to below 3), high (3 or more)

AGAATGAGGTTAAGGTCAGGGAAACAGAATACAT ... high
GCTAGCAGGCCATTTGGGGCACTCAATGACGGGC ... low
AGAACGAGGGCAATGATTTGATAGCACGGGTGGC ... low
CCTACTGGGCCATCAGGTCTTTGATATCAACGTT ... low
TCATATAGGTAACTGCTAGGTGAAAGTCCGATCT ... low
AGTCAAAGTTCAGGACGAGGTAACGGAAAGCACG ... moderate
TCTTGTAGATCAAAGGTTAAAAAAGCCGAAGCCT ... moderate
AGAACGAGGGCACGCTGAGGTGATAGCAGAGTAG ... moderate
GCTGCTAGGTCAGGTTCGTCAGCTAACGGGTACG ... moderate
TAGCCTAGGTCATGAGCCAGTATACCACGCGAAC ... moderate
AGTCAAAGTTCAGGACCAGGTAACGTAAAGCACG ... moderate
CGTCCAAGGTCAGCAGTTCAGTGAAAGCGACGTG ... high
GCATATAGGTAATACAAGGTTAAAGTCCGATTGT ... moderate
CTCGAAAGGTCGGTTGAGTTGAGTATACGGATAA ... high
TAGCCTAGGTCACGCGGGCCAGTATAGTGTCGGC ... moderate

====

tested on: RARb:RXRa (NR concentration 270 nM, RXRa partner concentration 90 nM); assay: PBM binding z-score (relative to random genomic background probes); higher = stronger binding; sequences stand for … in GC…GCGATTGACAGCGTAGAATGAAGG
observation.type: PBM binding z-score

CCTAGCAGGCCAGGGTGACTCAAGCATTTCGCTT ... 0.148
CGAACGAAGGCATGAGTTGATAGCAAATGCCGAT ... -0.545
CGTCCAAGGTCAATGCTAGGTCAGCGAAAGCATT ... 5.17
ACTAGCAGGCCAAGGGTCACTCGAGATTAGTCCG ... 3.48
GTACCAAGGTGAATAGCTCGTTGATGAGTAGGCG ... 0.887
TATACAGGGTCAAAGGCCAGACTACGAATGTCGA ... 4.56
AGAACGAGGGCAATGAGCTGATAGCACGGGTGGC ... 2
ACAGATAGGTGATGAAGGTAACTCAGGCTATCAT ... 0.11
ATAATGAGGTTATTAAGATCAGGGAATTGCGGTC ... 1.47
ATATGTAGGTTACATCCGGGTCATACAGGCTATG ... 2.41
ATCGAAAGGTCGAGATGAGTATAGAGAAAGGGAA ... 3.66
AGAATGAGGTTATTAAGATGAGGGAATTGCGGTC ... 1.41
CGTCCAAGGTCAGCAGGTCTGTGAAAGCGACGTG ... 4.85
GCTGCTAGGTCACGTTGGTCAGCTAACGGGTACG ... 4.18
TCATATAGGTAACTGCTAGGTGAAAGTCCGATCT ... 0.705
